molecular target: UniProt:O96028; format: biochemical
Sequence (O96028 whole entry): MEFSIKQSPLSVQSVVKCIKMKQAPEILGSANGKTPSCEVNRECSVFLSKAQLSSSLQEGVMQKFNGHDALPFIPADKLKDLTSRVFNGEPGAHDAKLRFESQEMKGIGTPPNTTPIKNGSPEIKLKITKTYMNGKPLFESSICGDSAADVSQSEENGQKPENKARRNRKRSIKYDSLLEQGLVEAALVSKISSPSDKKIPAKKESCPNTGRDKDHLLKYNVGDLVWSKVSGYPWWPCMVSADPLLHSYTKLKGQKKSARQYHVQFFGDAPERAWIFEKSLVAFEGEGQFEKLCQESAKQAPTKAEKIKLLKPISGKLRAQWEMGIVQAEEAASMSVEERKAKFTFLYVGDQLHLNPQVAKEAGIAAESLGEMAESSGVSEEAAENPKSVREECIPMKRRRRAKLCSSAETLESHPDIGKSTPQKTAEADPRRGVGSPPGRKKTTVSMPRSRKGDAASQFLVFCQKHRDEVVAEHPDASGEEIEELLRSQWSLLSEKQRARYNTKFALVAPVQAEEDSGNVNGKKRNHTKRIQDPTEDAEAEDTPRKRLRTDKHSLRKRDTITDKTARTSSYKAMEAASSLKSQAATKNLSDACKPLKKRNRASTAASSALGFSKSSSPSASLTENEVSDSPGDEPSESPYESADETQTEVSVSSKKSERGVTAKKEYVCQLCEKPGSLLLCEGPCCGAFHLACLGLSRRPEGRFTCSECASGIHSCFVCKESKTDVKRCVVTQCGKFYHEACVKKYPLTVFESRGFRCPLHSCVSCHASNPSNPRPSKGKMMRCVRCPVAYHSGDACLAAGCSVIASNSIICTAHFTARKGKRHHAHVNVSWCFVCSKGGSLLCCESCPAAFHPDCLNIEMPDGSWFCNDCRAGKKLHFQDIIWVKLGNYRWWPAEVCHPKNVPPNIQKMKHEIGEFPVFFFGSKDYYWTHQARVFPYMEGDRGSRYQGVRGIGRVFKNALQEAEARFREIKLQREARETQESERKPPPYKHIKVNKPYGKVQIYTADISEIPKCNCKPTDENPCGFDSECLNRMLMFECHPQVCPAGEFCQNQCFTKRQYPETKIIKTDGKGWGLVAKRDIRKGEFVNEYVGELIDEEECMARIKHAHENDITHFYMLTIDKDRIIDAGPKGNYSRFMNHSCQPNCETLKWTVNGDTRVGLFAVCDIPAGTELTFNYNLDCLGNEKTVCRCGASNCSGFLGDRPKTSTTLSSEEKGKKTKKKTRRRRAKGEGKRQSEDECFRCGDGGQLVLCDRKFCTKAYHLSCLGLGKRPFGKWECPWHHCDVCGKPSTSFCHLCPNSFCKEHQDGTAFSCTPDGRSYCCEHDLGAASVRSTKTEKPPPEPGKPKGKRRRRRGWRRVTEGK
Active and inactive are the calls of the source.
Respond only with the outcome that fits, drawn from Yes = active, No = inactive

Inquiry: # outcome recorded in this test, key = CNCc1cc(Br)c(OCC(=O)Nc2ccccc2OC)c(OC)c1
Reply text: Yes

Inquiry: Lab log entry: CCOC(=O)c1c(C)oc2c1c(/C=N/CCC(=O)O)c(O)c1ccccc12 — outcome as called in the assay?
Reply text: Yes

Inquiry: What outcome does the record of this test show for CCN(C(=O)COC(=O)c1ccc([N+](=O)[O-])o1)C1CCCCC1 ?
Reply text: No

Inquiry: Give the logged outcome of this assay for the following molecule: CCOC(=O)C1=C(C)N=c2s/c(=C\c3ccc(O)c([N+](=O)[O-])c3)c(=O)n2C1c1ccccc1OC (stereo unspecified)
Reply text: No

Inquiry: Called result for C=CCN(CC=C)C(=S)Nc1ccc2nsnc2c1
Reply text: Yes

Inquiry: Call for entry COc1cc(CCNC2=CC(=O)c3ncccc3C2=O)ccc1O :
Reply text: Yes

* * *

test system: BJ; test: BJ-TERT fibroblast viability loss – cell-based, RAS-independent, luminescence, dose response (AID 1933); format: functional; conditions: Homo sapiens
Activity calls are given as the source filed them.
ASSAY_METRIC: EC50

Inquiry: Could you share which EC50 value was measured for CCCCCCCCCCCCn1ccc(=N)cc1 ?
Reply text: 2.72 µM (active)

Inquiry: Data request, read-out EC50, for CCN1C/C(=C/c2ccc(OC)c(O)c2)C(=O)/C(=C/c2ccc(OC)c(O)c2)C1
Reply text: 1.78 µM (inconclusive)

Inquiry: State the recorded EC50 for this entry: O=[N+]([O-])c1ccccc1N/N=C\c1ccccc1Cl
Reply text: > 150 µM (not active)

Inquiry: Look up EC50: CCCOc1ccccc1C1CC(=O)NC2=C1C(=O)CCC2 (stereo not given)
Reply text: 16 µM (active)

Inquiry: Need EC50, item Cc1cccc2cc(C#N)c(SCC(=O)N3CC(=O)Nc4ccccc43)nc12
Reply text: 0.583 µM (inconclusive)

* * *

I'd be grateful if you could share measured EC50 for these entries.
Target: Short transient receptor potential channel 4 (Mus musculus, UniProt Q9QUQ5)
Sequence (Q9QUQ5 whole entry): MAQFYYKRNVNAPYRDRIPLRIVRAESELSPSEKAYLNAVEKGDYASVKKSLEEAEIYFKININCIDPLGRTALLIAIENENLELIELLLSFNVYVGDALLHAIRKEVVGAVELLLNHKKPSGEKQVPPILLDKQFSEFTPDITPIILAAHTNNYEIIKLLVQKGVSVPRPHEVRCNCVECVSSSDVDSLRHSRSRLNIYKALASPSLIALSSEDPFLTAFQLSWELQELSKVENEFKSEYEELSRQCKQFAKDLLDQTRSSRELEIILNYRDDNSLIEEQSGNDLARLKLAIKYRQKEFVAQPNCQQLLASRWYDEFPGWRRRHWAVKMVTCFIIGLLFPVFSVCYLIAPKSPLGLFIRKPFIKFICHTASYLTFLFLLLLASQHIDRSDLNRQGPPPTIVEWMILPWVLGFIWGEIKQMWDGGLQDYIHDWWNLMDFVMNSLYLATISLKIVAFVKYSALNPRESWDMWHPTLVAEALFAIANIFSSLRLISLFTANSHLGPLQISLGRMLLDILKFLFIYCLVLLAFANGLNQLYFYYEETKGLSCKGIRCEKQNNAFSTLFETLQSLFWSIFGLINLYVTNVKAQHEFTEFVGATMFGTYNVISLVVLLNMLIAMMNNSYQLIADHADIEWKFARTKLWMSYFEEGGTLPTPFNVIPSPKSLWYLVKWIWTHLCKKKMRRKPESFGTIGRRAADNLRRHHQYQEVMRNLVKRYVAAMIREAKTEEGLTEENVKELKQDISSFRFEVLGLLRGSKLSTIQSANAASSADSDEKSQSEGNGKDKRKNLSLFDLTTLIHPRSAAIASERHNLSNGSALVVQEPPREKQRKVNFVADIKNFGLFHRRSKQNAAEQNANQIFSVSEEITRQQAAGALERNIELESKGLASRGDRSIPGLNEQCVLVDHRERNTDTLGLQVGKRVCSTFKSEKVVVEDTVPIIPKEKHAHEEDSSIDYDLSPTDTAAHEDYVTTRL
Assay: calcium entry via TRPC4 opening agents – cell-based, HEK293 TRPC4/mu-opioid, Fluo-4 calcium, dose response (AID 434937)
Type: functional
Calls of active or inactive are those of the source.

Inquiry: Which EC50 value is on record for CCC1CCCCN1S(=O)(=O)c1ccc(C(=O)N(CCCN(C)C)c2nc3cc4c(cc3s2)OCO4)cc1 (centres undefined) ?
Reply text: 6.68 µM (active)

Inquiry: Endpoint output: EC50 of CN(C)CCCN(C(=O)c1ccc(S(=O)(=O)N2CCc3ccccc3C2)cc1)c1nc2c(F)cc(F)cc2s1 . Value?
Reply text: 1.19 µM (active)

Inquiry: Report EC50 for CCc1cccc(C)c1N=C(S)NCC(c1cccnc1)N(C)C (centres undefined) please.
Reply text: 0.0467 µM (active)

Inquiry: Would you mind telling me what EC50 value was observed for CCOC(=O)C1(CC2CC2)CCN(Cc2cnc(-c3ccccc3C)nc2)CC1 ?
Reply text: 5.31 µM (active)
